# target_system: Epidermal growth factor receptor (Homo sapiens, UniProt P00533)
# Sequence (P00533 whole entry): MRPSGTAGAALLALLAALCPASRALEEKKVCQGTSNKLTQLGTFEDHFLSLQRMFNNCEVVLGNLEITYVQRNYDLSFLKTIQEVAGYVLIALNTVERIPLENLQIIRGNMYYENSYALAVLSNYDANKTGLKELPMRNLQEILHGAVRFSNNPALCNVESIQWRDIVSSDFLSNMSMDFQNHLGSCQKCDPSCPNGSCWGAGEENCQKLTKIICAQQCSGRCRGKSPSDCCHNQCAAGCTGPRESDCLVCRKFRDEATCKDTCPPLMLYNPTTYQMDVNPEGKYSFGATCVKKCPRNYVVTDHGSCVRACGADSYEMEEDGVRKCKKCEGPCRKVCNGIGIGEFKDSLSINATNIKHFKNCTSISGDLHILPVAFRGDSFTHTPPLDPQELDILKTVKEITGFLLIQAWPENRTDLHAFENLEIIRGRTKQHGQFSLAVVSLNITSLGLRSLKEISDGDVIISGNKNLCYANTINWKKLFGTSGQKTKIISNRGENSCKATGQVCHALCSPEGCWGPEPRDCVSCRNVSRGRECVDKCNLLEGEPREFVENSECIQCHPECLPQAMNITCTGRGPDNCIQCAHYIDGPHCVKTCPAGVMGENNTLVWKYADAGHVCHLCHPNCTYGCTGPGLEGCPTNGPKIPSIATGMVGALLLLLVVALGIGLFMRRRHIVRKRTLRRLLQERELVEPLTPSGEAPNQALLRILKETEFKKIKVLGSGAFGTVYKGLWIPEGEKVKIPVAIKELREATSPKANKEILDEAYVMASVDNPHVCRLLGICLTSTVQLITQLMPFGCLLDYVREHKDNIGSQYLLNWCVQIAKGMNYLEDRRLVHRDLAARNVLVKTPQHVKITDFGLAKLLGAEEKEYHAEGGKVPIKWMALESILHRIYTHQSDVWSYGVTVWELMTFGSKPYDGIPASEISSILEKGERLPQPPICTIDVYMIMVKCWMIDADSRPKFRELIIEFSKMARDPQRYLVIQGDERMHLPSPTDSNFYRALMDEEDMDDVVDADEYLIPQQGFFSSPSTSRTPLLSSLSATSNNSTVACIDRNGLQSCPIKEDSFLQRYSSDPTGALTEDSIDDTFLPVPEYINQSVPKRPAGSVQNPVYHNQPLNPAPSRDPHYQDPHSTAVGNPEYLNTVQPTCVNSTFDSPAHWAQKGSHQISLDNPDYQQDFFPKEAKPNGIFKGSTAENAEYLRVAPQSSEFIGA
# assay_explanation: Inhibition of EGFR (unknown origin)
endpoint_name: pIC50
Answers are plain numbers, as −log10 of the molar value.

N=C1N=C(NCCS(=O)(=O)O)/C(=C/C(O)CNC(=O)c2cc(Br)c(Br)[nH]2)N1 (configuration not stated)    4.42

Reported pIC50 ( "N=C1NC(=O)/C(=C2/CCNC(=O)c3[nH]cc(Br)c32)N1" ) = 4.73
